# Test system: Plasmodium falciparum
# experimental.details: GSK_TCMDC: Inhibition of Plasmodium falciparum Dd2 in whole red blood cells, using parasite LDH activity as an index of growth. Test compounds present at 2uM
# Format: functional
Tick class 1 if Inhibition is 60% or greater. Tick class 0 if Inhibition is less than 60%.

                                   compound  qualitative_label
0  CN(C)CCN(C)Cc1ccc(-c2ccc(NS(=O)(=O)c3cccc4cccnc34)cc2)cc1.O=C(O)C(F)(F)F            class 0
1  COc1ccc(C2CC(=O)C3=C(C2)NC(C)=C(C(=O)OC(C)C)C3c2c(F)cccc2Cl)cc1OC (stereo not drawn)            class 1
2  Cc1nc2ccccc2n1C1CC2CCC(C1)N2CCCC1(c2ccccc2)CCN(C(=O)OCc2ccccc2)CC1.O=CO (stereo not drawn)            class 0
3  Cn1nc(C(F)(F)F)c(-c2ccc(F)cc2)c1NC(=O)Nc1ccc(F)cc1F            class 1
4  O=C(Nc1ccccc1)N(Cc1ccc(-c2cccc(CNCc3ccc4c(c3)OCO4)c2)cc1)C1CCN(Cc2ccccc2)CC1.O=C(O)C(F)(F)F            class 1
5  CN1CCC(C(=O)N(Cc2ccc(-c3ccc(CNCCc4ccc(S(C)(=O)=O)cc4)cn3)cc2)C2CCN(Cc3ccccc3)CC2)CC1.O=C(O)C(F)(F)F            class 1
6  COc1ccc(CNC(=O)NC2CCN(c3ccnc(Nc4cc(OC)c(OC)c(OC)c4)n3)C2)cc1 (stereo not drawn)            class 1
7  N#Cc1ccc(NC(=O)NC2CCN(CCCCCNC(=O)/C=C/c3ccc(Cl)c(Cl)c3)CC2)cc1            class 0
